target: KRas-mediated phosphorylation of ERK in MKN1 cells (Homo sapiens, UniProt P01116); construct: pERK HTRF read-out; test: Inhibition of KRas-mediated phosphorylation of ERK (HTRF), MKN1 cells; assay type: cell-based; settings: MKN1 cells (KRas WT); HTRF pERK; 3 h incubation
Sequence (P01116 1-188 isoform P01116-2): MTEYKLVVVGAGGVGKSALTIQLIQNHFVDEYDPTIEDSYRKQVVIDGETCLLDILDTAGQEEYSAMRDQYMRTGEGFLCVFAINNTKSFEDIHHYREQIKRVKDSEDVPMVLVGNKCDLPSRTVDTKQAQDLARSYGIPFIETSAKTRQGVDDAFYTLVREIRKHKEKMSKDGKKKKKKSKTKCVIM
endpoint: IC50 (nM)
Answer with a number only, understood to be in nM.

compound	readout_unit	IC50
CCc1cc(O)cc2cccc(-c3c(Cl)cc4c(N5CCCC(C(=O)n6ccc(C)n6)CC5)nc(OC[C@@]56CCCN5C[C@H](F)C6)nc4c3F)c12 (stereo partly drawn) [Example 264]	nM	3490

Returns the measured IC50 for the input compound. Input: CN(CCNC(=O)n1cncn1)c1nc(OC[C@@]23CCCN2C[C@H](F)C3)nc2c(F)c(-c3ccc(F)c4sc(N)c(C#N)c34)c(Cl)cc12 [Example 228]
252

Would you kindly share the measured IC50 for CN(CCN(C)c1nc(OC[C@@]23CCCN2C[C@H](F)C3)nc2c(F)c(-c3ccc(F)c4sc(N)c(C#N)c34)c(Cl)cc12)C(=O)n1cncn1 [Example 232] ?
97

I would be grateful if you could share the reported IC50 for Cc1ccn(C(=O)C2CCCCN(c3nc(OC[C@@]45CCCN4C[C@H](F)C5)nc4c(F)c(-c5ccc(F)c6sc(N)c(C#N)c56)c(Cl)cc34)C2)n1 (stereo partly drawn) [Example 136] .
13

What measured IC50 goes with CCc1c(F)ccc2cc(O)cc(-c3c(F)cc4c(N5CCCC(C(=O)n6ccc(C)n6)CC5)nc(OC[C@@]56CCCN5C[C@H](F)C6)nc4c3F)c12 (stereo partly drawn) [Example 174] ?
3000

Need IC50 of Cc1ccn(C(=O)C23CC(CNc4nc(OC[C@@]56CCCN5C[C@H](F)C6)nc5c(F)c(-c6ccc(F)c7sc(N)c(C#N)c67)c(Cl)cc45)(C2)C3)n1 [Example 184] , thanks.
1500

###

molecular target: KRas-mediated phosphorylation of ERK in MKN1 cells (Homo sapiens, UniProt P01116); construct: pERK HTRF read-out; assay: Inhibition of KRas-mediated phosphorylation of ERK (HTRF), MKN1 cells; format: cell-based; conditions: MKN1 cells (KRas WT); HTRF pERK; 3 h incubation
Below, each entry is listed with its recorded IC50.
Write it as a number; the unit nM goes unstated.

Solved entries:
compound	IC50, nM
Cc1ccn(C(=O)[C@H]2CCCN(c3nc(OC[C@@]45CCCN4C[C@H](F)C5)nc4c(F)c(-c5ccc(F)c6sc(N)c(C#N)c56)c(Cl)cc34)CC2)n1 (atropisomer, axis not shown; (aS)) [Example 169]	9480
CCc1c(F)ccc2cc(O)cc(-c3ncc4c(N5CCCC(C(=O)n6ccc(C)n6)C5)nc(OC[C@@]56CCCN5C[C@H](F)C6)nc4c3F)c12 (some centres unmarked)	266
CCc1c(F)ccc2cc(O)cc(-c3ncc4c(N5CC[C@H]6[C@@H](C5)[C@H]6C(=O)N(C)C(C)=O)nc(OC[C@@]56CCCN5C[C@H](F)C6)nc4c3F)c12	217

Lab note: next compound to report on.
Please give the measured IC50 for this compound: N#Cc1c(N)sc2c(F)ccc(-c3c(Cl)cc4c(N5CCC(C(=O)Oc6cccc(F)c6)CC5)nc(OC[C@@]56CCCN5C[C@H](F)C6)nc4c3F)c12
286

###

biological target: KRas G12S (Homo sapiens, UniProt P01116, G12S); construct: Biotinylated KRas (corresponding to amino acids 1-169, produced at Accelegan Inc.); biotin (biotinylated); purchased Accelegan Inc; assay: KRas binding assay, TR-FRET displacement of Cy5 labelled tracer; conditions: 60-minute incubation at room temperature, 1% DMSO, pH 7.5
Sequence (P01116 1-169 isoform P01116-2 G12S): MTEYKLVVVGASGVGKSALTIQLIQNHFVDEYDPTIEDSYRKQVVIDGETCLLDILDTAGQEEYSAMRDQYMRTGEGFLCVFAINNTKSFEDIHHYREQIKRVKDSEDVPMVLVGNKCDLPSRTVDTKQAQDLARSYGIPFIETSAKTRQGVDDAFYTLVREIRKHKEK
Listed here are compounds together with their documented log10 IC50.
Hey, these are logged values: log10 of IC50, nM being the unit before logging.

As a guide, the following entries are already answered.
> print(dat)
                                   compound                         system.under.test    endpoint  recorded.result
1  CN(CCNC(=O)n1ccnn1)c1nc(OC[C@@]23CCCN2C[C@H](F)C3)nc2c(F)c(-c3ccc(F)c4sc(N)c(C#N)c34)c(Cl)cc12 [Example 249]  KRas G12S (Homo sapiens, UniProt P01116, G12S)  log10 IC50             0.85
2  Cc1ccn(C(=O)CCCN(C)c2cc(O[C@@H](C)[C@@H]3CCCN3C)nc(-c3cc([C@]4(C)CCCc5sc(N)c(C#N)c54)sn3)n2)n1 [Example 323]  KRas G12S (Homo sapiens, UniProt P01116, G12S)  log10 IC50             1.41
3  O=C(Nc1ccccn1)C1CCN(c2nc(OCC34CCCN3CCC4)nc3c(F)c(-c4cccc5cccc(F)c45)ncc23)CC1 [Example 3]  KRas G12S (Homo sapiens, UniProt P01116, G12S)  log10 IC50             2.54
4  N#Cc1c(N)sc2c(F)ccc(-c3c(Cl)cc4c(N5CCN(C(=O)n6ccnn6)CC5)nc(OC[C@@]56CCCN5C[C@H](F)C6)nc4c3F)c12 [Example 226]  KRas G12S (Homo sapiens, UniProt P01116, G12S)  log10 IC50             0.90

Shift focus to the following entry.
I'd like to know its log10 IC50. The compound in question is CCc1c(F)ccc2cc(O)cc(-c3ncc4c(N5CCC(C(=O)n6nc(C)c(C)c6C)CC5)nc(OC[C@@]56CCCN5C[C@H](F)C6)nc4c3F)c12 [Example 73]
3.47

###

target: KRas G12C (Homo sapiens, UniProt P01116, G12C); construct: Biotinylated KRas (corresponding to amino acids 1-169, produced at Accelegan Inc.); biotin (biotinylated); purchased Accelegan Inc; experiment: KRas binding assay, TR-FRET displacement of Cy5 labelled tracer; settings: 60-minute incubation at room temperature, 1% DMSO, pH 7.5
Sequence (P01116 1-169 isoform P01116-2 G12C): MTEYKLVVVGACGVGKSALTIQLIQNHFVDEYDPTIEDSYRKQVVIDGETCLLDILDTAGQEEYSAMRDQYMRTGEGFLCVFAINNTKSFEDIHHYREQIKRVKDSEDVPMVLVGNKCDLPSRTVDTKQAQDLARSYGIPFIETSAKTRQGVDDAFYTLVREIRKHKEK
endpoint: IC50 (nM)
Express your answer in nM, writing the number without its unit.

compound	readout_unit	IC50
CCc1c(F)ccc2cc(O)cc(-c3ncc4c(N5CCC(C(=O)n6cc(C(C)(C)C)cn6)CC5)nc(OC[C@@]56CCCN5C[C@H](F)C6)nc4c3F)c12	nM	408
Cc1ccn(C(=O)C2CCCN(c3nc(OC[C@@]45CCCN4C[C@H](F)C5)nc4c(F)c(-c5ccc(F)c6sc(N)c(C#N)c56)c(Cl)cc34)CC2)n1 (some centres unmarked)	nM	11
C=CC1(C(=O)n2ccc(C)n2)CCN(c2nc(OC[C@@]34CCCN3C[C@H](F)C4)nc3c(F)c(-c4cc(O)cc5ccc(F)c(CC)c45)ncc23)C1 (some centres unmarked)	nM	37

What value of measured IC50 is listed for CC(=O)N(C)C(=O)C1CCCN(c2nc(OC[C@@]34CCCN3C[C@H](F)C4)nc3c(F)c(-c4ccc(F)c5sc(N)c(C#N)c45)c(Cl)cc23)CC1 (some centres unmarked) ?
14

Which IC50 reading was recorded for the compound CON(C)C(=O)C1CCN(c2nc(OC[C@@]34CCCN3C[C@H](F)C4)nc3c(F)c(-c4ccc(F)c5sc(N)c(C#N)c45)c(Cl)cc23)CC1 ?
14

What measured IC50 goes with CON(C)C(=O)CCCN(C)c1nc(OC[C@@]23CCCN2C[C@H](F)C3)nc2c(F)c(-c3ccc(F)c4sc(N)c(C#N)c34)c(Cl)cc12 ?
6

Param item = CN(CCCC(=O)Nc1cccnc1)c1nc(OC[C@@]23CCCN2C[C@H](F)C3)nc2c(F)c(-c3ccc(F)c4sc(N)c(C#N)c34)c(Cl)cc12 ; retrieve measured IC50.
4

Field request: IC50 | item: CC(=O)N(C)C(=O)CCCN(C)c1nc(OC[C@@]23CCCN2C[C@H](F)C3)nc2c(F)c(-c3ccc(F)c4sc(N)c(C#N)c34)c(Cl)cc12 [Example 259]
3

Field request: IC50 | item: CCc1c(F)ccc2cc(O)cc(-c3ncc4c(N(C)CCNC(=O)n5cncn5)nc(OC[C@@]56CCCN5C[C@H](F)C6)nc4c3F)c12
6

Look up IC50: CN(CCCC(=O)Oc1ccc(F)cc1F)c1nc(OC[C@@]23CCCN2C[C@H](F)C3)nc2c(F)c(-c3ccc(F)c4sc(N)c(C#N)c34)c(Cl)cc12
4

I'd like to know its IC50. The compound in question is O=C[C@@H]1[C@@H]2CC[C@H]1CN(c1nc(OCC34CCCN3CCC4)nc3c(F)c(-c4cccc5cccc(F)c45)ncc13)C2
1080

###

Listed below: IC50 values for each entry.
target: KRas-mediated phosphorylation of ERK in MKN1 cells (Homo sapiens, UniProt P01116); construct: pERK HTRF read-out; test: Inhibition of KRas-mediated phosphorylation of ERK (HTRF), MKN1 cells; assay type: cell-based; settings: MKN1 cells (KRas WT); HTRF pERK; 3 h incubation
Quick note: give the figure in nM, leave out the unit.

> print(dat)
                                   compound  endpoint  readout.unit  recorded.result
1  Cc1ccccc1OC(=O)C1CCN(c2nc(OC[C@@]34CCCN3C[C@H](F)C4)nc3c(F)c(-c4ccc(F)c5sc(N)c(C#N)c45)c(Cl)cc23)CC1 [Example 243]      IC50            nM              736
2  CCc1c(F)ccc2cc(O)cc(-c3ncc4c(N5CCC(C(=O)n6ccc(C(C)(C)C)n6)CC5)nc(OC[C@@]56CCCN5C[C@H](F)C6)nc4c3F)c12 [Example 75]      IC50            nM             1390

Find IC50 (KRas-mediated phosphorylation of ERK in MKN1 cells (Homo sapiens, UniProt P01116)) for the entry N#Cc1c(N)sc2c(F)ccc(-c3c(Cl)cc4c(N5CCC(C(=O)Oc6ccccc6Cl)CC5)nc(OC[C@@]56CCCN5C[C@H](F)C6)nc4c3F)c12 [Example 298]
217

Value wanted: IC50 (KRas-mediated phosphorylation of ERK in MKN1 cells (Homo sapiens, UniProt P01116)) of entry CCc1c(F)ccc2cc(O)cc(-c3ncc4c(N5CCCN(C(=O)n6ccc(C)n6)CC5)nc(OC[C@@]56CCCN5C[C@H](F)C6)nc4c3F)c12 [Example 69]
31
